# Tested on: Human immunodeficiency virus type 1 reverse transcriptase (Human immunodeficiency virus 1), Q72547 [L100I]
ID50 strictly under 500 nM means YES; at 500 nM or over means NO.

> print(dat)
                                   molecule  class.label
1  COC(c1nc(SC2CCCC2)[nH]c(=O)c1C)c1c(Cl)cccc1Cl (stereo unspecified)           NO
2  CCC(C)Sc1nc(C(CC)c2c(F)cccc2Cl)c(C)c(=O)[nH]1 (stereo unspecified)          YES

Q) Is ID50 strictly under 500 nM for the entry COC(c1nc(NC2CCCC2)[nH]c(=O)c1C)c1c(F)cccc1F (stereo unspecified) ?
A) YES

Q) Does this molecule meet the criterion ID50 < 500 nM? Cc1c(C(C)c2c(F)cccc2F)nc(SC2CCCC2)[nH]c1=O (stereo unspecified)
A) YES

Q) Is the reported ID50 for COC(c1nc(SC(C)C)[nH]c(=O)c1C)c1c(F)cccc1F (stereo unspecified) strictly below 500 nM?
A) NO

Q) Would you kindly verify if ID50 of COC(c1nc(SC(C)C)[nH]c(=O)c1C)c1c(Cl)cccc1Cl (stereo unspecified) is strictly less than 500 nM?
A) NO

Q) Does the reported ID50 of COC(c1nc(NC(C)C)[nH]c(=O)c1C)c1c(Cl)cccc1Cl (stereo unspecified) stay below 500 nM?
A) NO

Taken from ChEMBL document CHEMBL4371047.
